- System Name: Cytochrome P450 2C9 (Homo sapiens) (UniProt P11712)
- Sequence (P11712 whole entry, looked up): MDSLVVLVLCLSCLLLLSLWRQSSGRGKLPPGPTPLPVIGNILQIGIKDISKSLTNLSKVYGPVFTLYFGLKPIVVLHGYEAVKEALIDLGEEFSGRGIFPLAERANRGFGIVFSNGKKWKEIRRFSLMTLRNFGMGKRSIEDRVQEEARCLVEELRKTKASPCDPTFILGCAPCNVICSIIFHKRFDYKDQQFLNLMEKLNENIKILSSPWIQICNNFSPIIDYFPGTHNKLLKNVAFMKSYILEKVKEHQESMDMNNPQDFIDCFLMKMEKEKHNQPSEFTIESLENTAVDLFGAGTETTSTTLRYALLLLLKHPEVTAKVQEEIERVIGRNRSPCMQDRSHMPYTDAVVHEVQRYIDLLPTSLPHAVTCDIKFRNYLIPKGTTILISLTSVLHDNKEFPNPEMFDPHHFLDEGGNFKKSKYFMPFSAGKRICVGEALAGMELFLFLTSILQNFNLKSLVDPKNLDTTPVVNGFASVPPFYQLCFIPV
- Assay Comment: Cytochrome panel assay with activity outcomes
- Setup Conditions: recombinant CYP, pro-luciferin dealkylation, luminescence, p450-cyp2c9; series mostly up to 57.1 µM
In all, about 16,000 compounds went through this assay and about 4,000 (25%) were called active. Another 26% or so got no clear call; they are omitted. Calls follow the shape of the dose curve; as a rule, active = well fitted curve in the direction sought with a large enough effect; inconclusive = small, poorly fitted or top-dose-only effect, or effect the other way; inactive = no such curve, though single readings can be large or run the other way. The list is a sample of the results.
Please reply with one of these outcomes: active, inactive

>>> df
                                chem_smiles  class_assignment
0  O=C(Cc1ccc(-n2c(=O)[nH]c3ccccc3c2=O)cc1)N1CCN(c2cccc(Cl)c2)CC1            active
1  O=C(Cn1ccc2ccccc2c1=O)N1CCN(c2cccc(Cl)c2)CC1          inactive
2  O=C(COC(=O)c1cccc(S(=O)(=O)N2CCN(c3ccccc3)CC2)c1)NCc1ccco1            active

I would be grateful if you could indicate the recorded call for COc1ccc(-n2c(=O)c(-c3cc(F)cc(F)c3)nc3cncnc32)cc1 .
inactive

Hi, sorry to bother you, what did the test record for CCNc1ncc2nc(-c3cn(C)c4ccccc34)c(=O)n(Cc3cccs3)c2n1 ?
active

Please indicate how the test categorized Cc1ccccc1Oc1ncnc2oc(-c3ccccc3)cc12 .
active
